This collection of values is drawn from patent US9193673B2.

Assay: In vivo pharmacokinetic in the rat after i.v. and p.o. administration of compound (IV)
Conditions: rat, plasma, iv, 5 mg/kg, compound (IV) i.v. 5 mg/kg, rat, individual rats; read-out: Cmax
outcomeMeasure: Cmax (ng/mL)
Report as a plain number; the unit ng/mL is understood.

Report Cmax, nothing else, for this compound: `CCCC(=O)Oc1ccc(N)cc1C(=O)O.Cl`
598

* * *

Experiment: In vivo pharmacokinetic in the rat after i.v. and p.o. administration of compound (IV)
Settings: rat, plasma, po, 50 mg/kg, after p.o. administration, rat; read-out: Cmax
outcomeMeasure: Cmax
Write your answer as a measured quantity: the number, then the unit.

Give the reported value of Cmax for this record: `CCCC(=O)Oc1ccc(N)cc1C(=O)O.Cl`
95 ng/mL
